Recorded mass density values for a group of compounds are listed next.
- PROTOCOL_DETAILS: mn = molality of the nth substance listed, in mol/kg
- CONDITIONS_USED: 308.15 K; 101 kPa; Liquid; m2 = 0
OBSERVATION_TYPE: mass density (kg/m3)

compound="C[S+](C)[O-] [dimethyl sulfoxide] + CCCCCCCCCCCCn1cc[n+](C)c1.[Br-]" result_units=kg/m3 result=1085.41
compound="C[S+](C)[O-] [dimethyl sulfoxide] + CCCCn1cc[n+](C)c1.[Br-]" result_units=kg/m3 result=1085.41
compound="C[S+](C)[O-] [dimethyl sulfoxide] + CCCCCCCCn1cc[n+](C)c1.[Br-]" result_units=kg/m3 result=1085.41
compound="C[S+](C)[O-] [dimethyl sulfoxide] + CCCCCCCCCCn1cc[n+](C)c1.[Br-]" result_units=kg/m3 result=1085.42

====

- PROTOCOL_DETAILS: mn = molality of the nth substance listed, in mol/kg
- CONDITIONS_USED: 303.15 K; 101 kPa; Liquid; m2 = 0
Recorded mass density values for a group of compounds are listed next.
OBSERVATION_TYPE: mass density (kg/m3)

compound="C[S+](C)[O-] [dimethyl sulfoxide] + CCCCCCCCCCn1cc[n+](C)c1.[Br-]" result_units=kg/m3 result=1090.37
compound="C[S+](C)[O-] [dimethyl sulfoxide] + CCCCCCCCCCCCn1cc[n+](C)c1.[Br-]" result_units=kg/m3 result=1090.38
compound="C[S+](C)[O-] [dimethyl sulfoxide] + CCCCn1cc[n+](C)c1.[Br-]" result_units=kg/m3 result=1090.36
compound="C[S+](C)[O-] [dimethyl sulfoxide] + CCCCCCCCn1cc[n+](C)c1.[Br-]" result_units=kg/m3 result=1090.34

====

- PROTOCOL_DETAILS: mn = molality of the nth substance listed, in mol/kg
- CONDITIONS_USED: 313.15 K; 101 kPa; Liquid; m2 = 0
OBSERVATION_TYPE: mass density (kg/m3)

compound="C[S+](C)[O-] [dimethyl sulfoxide] + CCCCn1cc[n+](C)c1.[Br-]" result=1080.45
compound="C[S+](C)[O-] [dimethyl sulfoxide] + CCCCCCCCCCCCn1cc[n+](C)c1.[Br-]" result=1080.47
compound="C[S+](C)[O-] [dimethyl sulfoxide] + CCCCCCCCCCn1cc[n+](C)c1.[Br-]" result=1080.45
compound="C[S+](C)[O-] [dimethyl sulfoxide] + CCCCCCCCn1cc[n+](C)c1.[Br-]" result=1080.43

These data points were gathered from the NIST ThermoML archive (doi:10.1021/je300017m).
